tested on: metabolism of CsA in rat liver microsomes (RLMs); experiment: Inhibition of CsA metabolism in rat liver microsomes (RLMs); conditions: screen of 132 drugs, RLMs […], Tris-HCl, NADPH 1 mM, AM1 by UPLC-MS/MS
property.measured: Inhibitory rate on the metabolism of CsA

compound	property.measured	assay.value
N#CC1(c2ccc(NC(=O)c3cccnc3NCc3ccncc3)cc2)CCCC1	Inhibitory rate on the metabolism of CsA	greater than 80%
CO[C@H]1C[C@@H]2CC[C@@H](C)[C@@](O)(O2)C(=O)C(=O)N2CCCC[C@H]2C(=O)O[C@H]([C@H](C)C[C@@H]2CC[C@@H](OCCO)[C@H](OC)C2)CC(=O)[C@H](C)/C=C(\C)[C@@H](O)[C@@H](OC)C(=O)[C@H](C)C[C@H](C)/C=C/C=C/C=C/1C	Inhibitory rate on the metabolism of CsA	greater than 80%
COC(=O)C1=C(C)NC(C)=C(C(=O)OCC(C)C)C1c1ccccc1[N+](=O)[O-] (stereo not drawn)	Inhibitory rate on the metabolism of CsA	greater than 80%
